- System under test: androgen receptor (AR) (Homo sapiens, UniProt P10275, T878A)
- Sequence (P10275 1-920 T878A): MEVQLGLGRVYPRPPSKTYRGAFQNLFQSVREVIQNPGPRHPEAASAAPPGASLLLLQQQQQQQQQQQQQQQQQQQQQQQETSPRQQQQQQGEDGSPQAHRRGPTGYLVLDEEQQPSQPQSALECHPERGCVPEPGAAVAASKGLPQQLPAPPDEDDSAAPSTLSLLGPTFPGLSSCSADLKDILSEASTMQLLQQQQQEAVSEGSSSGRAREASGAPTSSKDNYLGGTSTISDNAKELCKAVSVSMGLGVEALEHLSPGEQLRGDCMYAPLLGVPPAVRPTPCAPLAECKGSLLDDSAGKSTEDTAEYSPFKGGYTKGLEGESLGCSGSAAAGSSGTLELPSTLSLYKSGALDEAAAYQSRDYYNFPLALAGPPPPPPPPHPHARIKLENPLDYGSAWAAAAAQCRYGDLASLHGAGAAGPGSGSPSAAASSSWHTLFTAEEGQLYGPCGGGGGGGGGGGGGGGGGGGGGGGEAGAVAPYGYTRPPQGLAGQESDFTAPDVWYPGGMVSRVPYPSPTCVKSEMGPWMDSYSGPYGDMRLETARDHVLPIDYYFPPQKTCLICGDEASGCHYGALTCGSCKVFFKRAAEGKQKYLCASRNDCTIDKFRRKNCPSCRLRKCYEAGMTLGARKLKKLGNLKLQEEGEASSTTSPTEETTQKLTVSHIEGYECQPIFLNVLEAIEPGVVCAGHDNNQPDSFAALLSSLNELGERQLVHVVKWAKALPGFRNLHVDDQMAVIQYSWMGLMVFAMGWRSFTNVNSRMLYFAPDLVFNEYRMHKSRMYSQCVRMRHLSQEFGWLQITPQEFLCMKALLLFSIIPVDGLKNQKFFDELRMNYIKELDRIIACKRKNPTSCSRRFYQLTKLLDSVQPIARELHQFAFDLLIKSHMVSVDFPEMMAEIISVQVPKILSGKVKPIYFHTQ
- Procedure details: Androgen-induced PSA (6.1 kb)-luciferase reporter assay in LNCaP cells (R1881 1 nM)
- Format: cell-based
- Design: endogenous in cells; host or cells: LNCaP
- Condition label: 24 h, read-out: PSA-Luc IC50 Range
Catalogue of compounds with associated IC50

# get_value(readout='IC50', item= COc1c(Cl)cc(C(C)(C)c2ccc(-c3ccc4nc(NS(C)(=O)=O)cnc4c3)cc2)cc1C#N )
> 2000 nM

# get_value(readout='IC50', item= CC(C)(c1ccc(-c2ccc3c(c2)CCN(S(C)(=O)=O)C3)cc1)c1cc(Cl)c(OCCCl)c(C#N)c1 )
500 to 2000 nM

# get_value(readout='IC50', item= CS(=O)(=O)N1CC2(CN(Cc3ccc4c(ccn4-c4cc(Cl)c(OCCCl)c(C#N)c4)c3)C2)C1 )
> 2000 nM

# get_value(readout='IC50', item= CS(=O)(=O)n1cc(COc2ccc3c(ccn3-c3cc(Cl)c(OCCCl)c(C#N)c3)c2)cn1 )
500 to 2000 nM

# get_value(readout='IC50', item= CS(=O)(=O)N[C@H]1CC[C@H](Oc2ccc3c(ccn3-c3cc(Cl)c(OCCCl)c(C#N)c3)c2)CC1 )
500 to 2000 nM

* * *

- Procedure details: Microsomal stability assay, liver microsome half-life (human)
- Format: in vitro ADME
- Condition label: pH 7.4; human liver microsomes 0.5 mg/mL, 1 μM compound, 37° C.; read-out: Liver microsome T1/2 Human
Outcome measure: half-life at 1 μM

Look over these answered cases.
{"columns": ["Molecule", "half-life at 1 μM"],
 "data": [
  ["CC(C)(c1ccc(-c2ccc3nc(NS(C)(=O)=O)sc3c2)cc1)c1cc(Cl)c(OCCCl)c(C#N)c1", "> 2 h"],
  ["CS(=O)(=O)N1CC(COc2ccc3c(ccn3-c3cc(Cl)c(OCCCl)c(C#N)c3)c2)C1", "0.183 h"],
  ["CC(C)(c1ccc(OCc2cnc(NS(C)(=O)=O)nc2N2CCOCC2)cc1)c1cc(Cl)c(OCCCl)c(C#N)c1", "> 2 h"]
]}

Lab note: next molecule to report on.
# get_value(readout='half-life at 1 μM', item= CS(=O)(=O)Nc1cnc2cc(-c3ccc4c(c3)CCC4c3cc(Cl)c(OCCCl)c(C#N)c3)ccc2n1 (stereo not shown) )
> 2 h

* * *

- Procedure details: Microsomal stability assay, liver microsome half-life (dog)
- Type: in vitro ADME
- Condition label: pH 7.4; dog liver microsomes 0.5 mg/mL, 1 μM compound, 37° C.; read-out: Liver microsome T1/2 Dog
Catalogue of compounds with associated half-life at 1 μM

Look over these answered cases.
{"columns": ["Compound", "half-life at 1 μM"],
 "data": [
  ["CS(=O)(=O)N[C@H]1C[C@H](COc2ccc3c(ccn3-c3cc(Cl)c(OCCCl)c(C#N)c3)c2)C1", "> 2 h"],
  ["CC(C)(c1ccc(OCC23CC(NS(C)(=O)=O)(C2)C3)cc1)c1cc(Cl)c(OCCCl)c(C#N)c1", "> 2 h"],
  ["CC(C)(c1ccc(-c2ccc3nc(NS(C)(=O)=O)ccc3n2)cc1)c1cc(Cl)c(OCCCl)c(C#N)c1", "> 2 h"],
  ["CS(=O)(=O)Nc1nccc(COc2ccc3c(ccn3-c3cc(Cl)c(OCCCl)c(C#N)c3)c2)n1", "> 2 h"],
  ["CC(C)(c1ccc(-c2ccc3nc(NS(C)(=O)=O)nc(N)c3c2)cc1)c1cc(Cl)c(OCCCl)c(C#N)c1", "> 2 h"]
]}

# get_value(readout='half-life at 1 μM', item= CS(=O)(=O)Nc1cnc2cc(-c3ccc4c(c3)CCC4c3cc(Cl)c(OCCCl)c(C#N)c3)ccc2n1 (stereo not shown) )
> 2 h

# get_value(readout='half-life at 1 μM', item= CC(C)(c1ccc(OCc2ccnc(NS(C)(=O)=O)n2)cc1)c1ccc(OCC(O)CCl)cc1 (stereo not shown) )
> 2 h

# get_value(readout='half-life at 1 μM', item= CC(C)(c1ccc(-c2ccn3nc(NS(C)(=O)=O)nc3c2)cc1)c1cc(Cl)c(OCCCl)c(C#N)c1 )
> 2 h

# get_value(readout='half-life at 1 μM', item= CS(=O)(=O)NC1CCN(Cc2ccc3c(ccn3-c3cc(Cl)c(OCCCl)c(C#N)c3)c2)CC1(F)F (stereo not shown) )
> 2 h

# get_value(readout='half-life at 1 μM', item= CS(=O)(=O)NC1CCN(Cc2ccc3c(ccn3-c3cc(Cl)c(OCCCl)c(C#N)c3)c2)CC1 )
> 2 h

* * *

Catalogue of molecules with associated pIC50
- System under test: androgen receptor (AR) (Homo sapiens, UniProt P10275, T878A)
- Procedure details: Androgen-induced PSA (6.1 kb)-luciferase reporter assay in LNCaP cells (R1881 1 nM)
- Type: cell-based
- Design: endogenous in cells; host or cells: LNCaP
- Condition label: 24 h, read-out: PSA-Luc IC50 Range
pIC50: −log10 of the molar value.

Look over these answered cases.
{"columns": ["Molecule", "System under test", "pIC50"],
 "data": [
  ["CS(=O)(=O)N1CCC[C@@H](COc2ccc3c(ccn3-c3cc(Cl)c(OCCCl)c(C#N)c3)c2)C1", "androgen receptor (AR) (Homo sapiens, UniProt P10275, T878A)", "< 5.70"],
  ["CC(C)(c1ccc(OCC23CCC(NS(C)(=O)=O)(CC2)C3)cc1)c1cc(Cl)c(OCCCl)c(C#N)c1", "androgen receptor (AR) (Homo sapiens, UniProt P10275, T878A)", "5.70 to 6.30"],
  ["CC(C)(c1ccc(OCc2cnc(NS(C)(=O)=O)nc2N2CCCCC2)cc1)c1cc(Cl)c(OCCCl)c(C#N)c1", "androgen receptor (AR) (Homo sapiens, UniProt P10275, T878A)", "5.70 to 6.30"],
  ["CC(C)(c1ccc(OCC23CCC(NS(C)(=O)=O)(CC2)CC3)cc1)c1cc(Cl)c(OCCCl)c(C#N)c1", "androgen receptor (AR) (Homo sapiens, UniProt P10275, T878A)", "5.70 to 6.30"],
  ["CC(C)(c1ccc(OCc2ccnc(NS(C)(=O)=O)n2)cc1)c1cc(F)c(N2CCCCC2)c(C#N)c1", "androgen receptor (AR) (Homo sapiens, UniProt P10275, T878A)", "5.70 to 6.30"]
]}

# get_value(readout='pIC50', item= CS(=O)(=O)Nc1ncc(Cn2cc3c(-c4cc(Cl)c(OCCCl)c(C#N)c4)cccc3n2)cn1 )
< 5.70

* * *

- System under test: androgen receptor (AR) (Homo sapiens, UniProt P10275, T878A)
- Procedure details: Androgen-induced PSA (6.1 kb)-luciferase reporter assay in LNCaP cells (R1881 1 nM)
- Format: cell-based
- Set-up: endogenous in cells; host or cells: LNCaP
- Condition label: 24 h, read-out: PSA-Luc IC50 Range
Catalogue of compounds with associated IC50

Look over these answered cases.
{"columns": ["Compound", "System under test", "IC50"],
 "data": [
  ["CC(C)(c1ccc(OCc2ccnc(NS(C)(=O)=O)n2)cc1)c1cc(Cl)c(OCCCCl)c(C#N)c1", "androgen receptor (AR) (Homo sapiens, UniProt P10275, T878A)", "0.5 to 2 µM"],
  ["CS(=O)(=O)NCC1CN(Cc2ccc3c(ccn3-c3cc(Cl)c(OCCCl)c(C#N)c3)c2)CCO1 (stereo not shown)", "androgen receptor (AR) (Homo sapiens, UniProt P10275, T878A)", "> 2 µM"],
  ["CC(C)(c1ccc(-c2ccc3nc(NS(C)(=O)=O)oc3n2)cc1)c1cc(Cl)c(OCCCl)c(C#N)c1", "androgen receptor (AR) (Homo sapiens, UniProt P10275, T878A)", "> 2 µM"]
]}

Lab note: next compound to report on.
# get_value(readout='IC50', item= CS(=O)(=O)NC1CC2(C1)CN(Cc1ccc3c(ccn3-c3cc(Cl)c(OCCCl)c(C#N)c3)c1)C2 )
> 2 µM
